This listing pairs compounds with measured Transcription activity E (%).
molecular target: Pol II (Homo sapiens); construct: HeLaScribe® nuclear extract containing Pol II and all other transcription factors; purchased Promega; host or cells: HeLa nuclear extract (endogenous protein); test: In vitro transcription runoff assay using HeLaScribe nuclear extract; type: biochemical; settings: 1000 nM; mean ± standard deviation
Starred links: 1 amine or outer side, 2 acyl side, 3 side chain; linkers in the order of their positions; H or OH if unused. Positions of bridges follow the written chain, without caps; N, C: chain ends. Non-standard residues stand in square brackets, D forms with d. Residues, ends and D or L forms follow the SMILES beside them. Trp(2-yl) = O=C([C@H](Cc1c([*:3])[nH]c2ccccc12)N[*:1])[*:2]; Pro(trans-4-guanidino) = N=C(N)N[C@H]1CN[C@H](C(=O)O)C1; Pro(4R-SH) = O=C([C@@H]1C[C@@H](S[*:3])CN1[*:1])[*:2]; Ile(4R-OH,5-OH) = C[C@H]([C@H](N)C(=O)O)[C@@H](O)CO; X1 = N#C[C@@H]1C[C@@H](C(=O)[*:2])N([*:1])C1; Pro(4R-NH2) = N[C@H]1CN[C@H](C(=O)O)C1
measurement_kind: Transcription activity E (%)

| compound | measurement_kind | endpoint_unit | readout_value |
| --- | --- | --- | --- |
| CC[C@H](C)[C@@H]1NC(=O)CNC(=O)[C@@H]2Cc3c([nH]c4ccccc34)SC[C@H](NC(=O)CNC1=O)C(=O)N[C@@H](CC(N)=O)C(=O)N1C[C@H](NC(=N)N)C[C@H]1C(=O)N[C@@H]([C@@H](C)[C@@H](O)CO)C(=O)N2 [Compound 7, Gdn-Pro-amanitin] (cyclo(CN[Pro(trans-4-guanidino)][Ile(4R-OH,5-OH)][Trp(2-yl)]GIG); thioether 1-5) | Transcription activity E (%) | % | 31.3 |
| CC[C@H](C)[C@@H]1NC(=O)CNC(=O)[C@@H]2Cc3c([nH]c4ccccc34)SC[C@H](NC(=O)CNC1=O)C(=O)N[C@@H](CC(N)=O)C(=O)N1C[C@H](S)C[C@H]1C(=O)N[C@@H]([C@@H](C)[C@@H](O)CO)C(=O)N2 [Compound 5, SH-Pro-amanitin] (cyclo(CN[Pro(4R-SH)][Ile(4R-OH,5-OH)][Trp(2-yl)]GIG); thioether 1-5) | Transcription activity E (%) | % | 50.3 |
| CC[C@H](C)[C@@H]1NC(=O)CNC(=O)[C@@H]2Cc3c([nH]c4ccccc34)SC[C@H](NC(=O)CNC1=O)C(=O)N[C@@H](CC(N)=O)C(=O)N1C[C@H](C#N)C[C@H]1C(=O)N[C@@H]([C@@H](C)[C@@H](O)CO)C(=O)N2 [Compound 4, CN-Pro-amanitin] (cyclo(CN[X1][Ile(4R-OH,5-OH)][Trp(2-yl)]GIG); thioether 1-5) | Transcription activity E (%) | % | 52.3 |
| CC[C@H](C)[C@@H]1NC(=O)CNC(=O)[C@@H]2Cc3c([nH]c4ccccc34)SC[C@H](NC(=O)CNC1=O)C(=O)N[C@@H](CC(N)=O)C(=O)N1C[C@H](N)C[C@H]1C(=O)N[C@@H]([C@@H](C)[C@@H](O)CO)C(=O)N2 [Compound 6, NH2-Pro-amanitin] (cyclo(CN[Pro(4R-NH2)][Ile(4R-OH,5-OH)][Trp(2-yl)]GIG); thioether 1-5) | Transcription activity E (%) | % | 38.6 |
